Test: Tanguay_ZF_120hpf_PE_legacy: (Legacy) Oregon State University Tanguay Lab 120 Hour Post-fertilization zebrafish Assay for Pericardial Edema (AID 2283640)
Inconclusive results are not listed. Active and inactive are the calls of the source. The calls were made as follows: active = hit-call score of the fitted dose curve at least 0.9, where 1 is the maximum; inconclusive = response in the unintended direction; inactive = score below 0.9.
Outcome codes: active, inactive

>  <Molecule>
CS(=O)(=O)c1ccc(C(=O)C2C(=O)CCCC2=O)c([N+](=O)[O-])c1

>  <Qualitative label>
inactive

$$$$
>  <Molecule>
CC(C)C1(C)N=C(c2ncccc2C(=O)O)NC1=O (stereo not given)

>  <Qualitative label>
inactive

$$$$
>  <Molecule>
CC1(C)C(C=C(Cl)Cl)C1C(=O)OC(C#N)c1cccc(Oc2ccccc2)c1 (stereo not given)

>  <Qualitative label>
active

$$$$
>  <Molecule>
CCOP(=S)(OCC)Oc1nc(Cl)n(C(C)C)n1

>  <Qualitative label>
inactive

$$$$
>  <Molecule>
N#CN=C1SCCN1Cc1ccc(Cl)nc1

>  <Qualitative label>
inactive

$$$$
>  <Molecule>
COCc1cnc(C2=NC(C)(C(C)C)C(=O)N2)c(C(=O)O)c1 (stereo not given)

>  <Qualitative label>
inactive

$$$$
>  <Molecule>
Clc1nc(Cl)nc(Nc2ccccc2Cl)n1

>  <Qualitative label>
inactive

$$$$
>  <Molecule>
COc1cc(Cl)c(OC)cc1Cl

>  <Qualitative label>
inactive

$$$$
>  <Molecule>
CN/C(=N\[N+](=O)[O-])NCc1cnc(Cl)s1

>  <Qualitative label>
inactive

$$$$
>  <Molecule>
COc1cc(OC)nc(NC(=O)NS(=O)(=O)c2ncccc2OCC(F)(F)F)n1

>  <Qualitative label>
inactive

$$$$
>  <Molecule>
Nc1c(Cl)c(Cl)nc(C(=O)O)c1Cl

>  <Qualitative label>
inactive

$$$$
>  <Molecule>
O=c1n(Cl)c(=O)n(Cl)c(=O)n1Cl

>  <Qualitative label>
inactive

$$$$
>  <Molecule>
N#Cc1c(Cl)cccc1Cl

>  <Qualitative label>
inactive

$$$$
>  <Molecule>
CC(C)N1C(=O)c2ccccc2NS1(=O)=O

>  <Qualitative label>
inactive

$$$$
>  <Molecule>
OC(c1ccc(Cl)cc1)(c1ccc(Cl)cc1)C(Cl)(Cl)Cl

>  <Qualitative label>
inactive

$$$$
>  <Molecule>
CCCCC(C#N)(Cn1cncn1)c1ccc(Cl)cc1 (stereo not given)

>  <Qualitative label>
active

$$$$
>  <Molecule>
CCOC(=O)C(C)OC(=O)c1cc(Oc2ccc(C(F)(F)F)cc2Cl)ccc1[N+](=O)[O-] (stereo not given)

>  <Qualitative label>
inactive

$$$$
>  <Molecule>
C=C(C)CN(CC)c1c([N+](=O)[O-])cc(C(F)(F)F)cc1[N+](=O)[O-]

>  <Qualitative label>
inactive

$$$$
>  <Molecule>
COP(=S)(OC)SCn1nnc2ccccc2c1=O

>  <Qualitative label>
inactive

$$$$
>  <Molecule>
CC1(C)CON(Cc2ccccc2Cl)C1=O

>  <Qualitative label>
inactive

$$$$
>  <Molecule>
CCC(C)n1c(=O)[nH]c(C)c(Br)c1=O (stereo not given)

>  <Qualitative label>
inactive

$$$$
>  <Molecule>
COC(=O)N(C(=O)N1CO[C@@]2(C(=O)OC)Cc3cc(Cl)ccc3C2=N1)c1ccc(OC(F)(F)F)cc1

>  <Qualitative label>
inactive

$$$$
>  <Molecule>
CCCN(CC)CC1COC2(CCC(C(C)(C)C)CC2)O1 (stereo not given)

>  <Qualitative label>
inactive

$$$$
>  <Molecule>
CCCC(=NOCC)C1=C(O)CC(CC(C)SCC)CC1=O (stereo not given)

>  <Qualitative label>
inactive

$$$$
>  <Molecule>
Cc1nc(N(C)C)nc(OC(=O)N(C)C)c1C

>  <Qualitative label>
inactive

$$$$
